Target or test system: BRD4 (BDI_K57-E168) (Homo sapiens (Human))
Assay notes: TR-FRET bromodomain binding assay, BRD4 first bromodomain
Study conditions: His-tagged BD1, Alexa647-labeled probe 100 nM
Property: Ki (µM)

Here are 3 compounds together with their reported answers.
{"Compound": "CCNC(=O)c1cc2c(-c3cc(S(=O)(=O)CC)ccc3Oc3c(C)cccc3NCC3CC3)cn(C)c(=O)c2[nH]1", "Ki / µM": 1.51}
{"Compound": "CCS(=O)(=O)c1ccc(Oc2c(C)cccc2Cl)c(-c2cn(C)c(=O)c3[nH]c(C(=O)NCC(=O)NC)cc23)c1", "Ki / µM": 0.0883}
{"Compound": "CCNC(=O)c1cc2c(-c3ccc(C(=O)N(CC(=O)NC)Cc4ccccn4)cc3Oc3c(C)cccc3C)cn(C)c(=O)c2[nH]1", "Ki / µM": 1.04}

P: CSCCCN[C@H]1CC[C@H](Nc2ccc(S(C)(=O)=O)cc2-c2cn(C)c(=O)c3[nH]ccc23)CC1
Q: COC1CCC(C(=O)N2CCC(Nc3ccc(S(C)(=O)=O)cc3-c3cn(C)c(=O)c4[nH]ccc34)CC2)CC1 (centres unmarked)
Determine, for P and Q , which has the greater value of Ki. Answer format: the label of the selected item.
Q

----------
Target or test system: BRD4 (BDII_E352-M457) (Homo sapiens (Human), UniProt O60885)
Assay notes: TR-FRET bromodomain binding assay, BRD4 second bromodomain
Study conditions: His-tagged BD2, Alexa647-labeled probe 30 nM
Property: Ki (nM)

{"Structure as smiles": "CCS(=O)(=O)Nc1cc(-c2cn(C)c(=O)c3[nH]ccc23)c(Oc2ccc(F)cc2F)cc1C(=O)NC1CCCC1", "Reported value": 2}
{"Structure as smiles": "Cn1cc(-c2cc(S(C)(=O)=O)ccc2N[C@H]2CC[C@H](NCc3ccc4ccccc4c3)CC2)c2cc[nH]c2c1=O", "Reported value": 2.2}

A: CC(=O)Nc1ccc(S(=O)(=O)N2CCC(Nc3ccc(S(C)(=O)=O)cc3-c3cn(C)c(=O)c4[nH]ccc34)CC2)cc1
B: Cn1cc(-c2cc(S(C)(=O)=O)ccc2N[C@H]2CC[C@H](NCc3cccs3)CC2)c2cc[nH]c2c1=O
Determine, for A and B , which has the greater value of Ki. Answer format: the label of the selected item.
B

----------
Target or test system: BRD4 (BDI_K57-E168) (Homo sapiens (Human), UniProt O60885)
Assay notes: TR-FRET bromodomain binding assay, BRD4 first bromodomain
Study conditions: His-tagged BD1, Alexa647-labeled probe 100 nM
pKi: −log10 of the molar value.
Property: pKi

Here are 3 molecules together with their reported answers.
{"Structure as smiles": "Cn1cc(-c2cc(S(C)(=O)=O)ccc2Oc2cccc(NCCC3CCCC3)c2)c2cc[nH]c2c1=O", "pKi": 7.46}
{"Structure as smiles": "CCS(=O)(=O)Nc1cc(-c2cn(C)c(=O)c3[nH]ccc23)c(Oc2ccc(F)cc2F)cc1CN1CCCCC1", "pKi": 7.06}
{"Structure as smiles": "Cn1cc(-c2cc(S(C)(=O)=O)ccc2NC2CCN(C(=O)C3(C(N)=O)CC3)CC2)c2cc[nH]c2c1=O", "pKi": 7.72}

P: Cn1cc(-c2cc(S(C)(=O)=O)ccc2Oc2cccc(NCc3cccc(OC(F)(F)F)c3)c2)c2cc[nH]c2c1=O
Q: Cn1cc(-c2cc(S(C)(=O)=O)ccc2Oc2cccc(C(=O)N3CCN(C4CCCC4)CC3)c2)c2cc[nH]c2c1=O
R: Cn1cc(-c2cc(S(C)(=O)=O)ccc2Oc2cccc(NCc3ccccc3C#N)c2)c2cc[nH]c2c1=O
S: CCNC(=O)c1cc2c(-c3ccc(C(=O)N(CC#N)c4cccc(Cl)c4)cc3Oc3c(C)cccc3C)cn(C)c(=O)c2[nH]1
Reorder the items by pKi, least to greatest. Your answer should be the labels, listed in the requested order.
S, R, Q, P
